Experiment: purified protein yield per well (BCA); higher = higher soluble expression
reported-property: purified protein yield per well

{"columns": ["ordered-residues", "observed-result"],
 "data": [
  ["RDLPPSAPLAANPYERGPAPTVASIEATLGPFATAQTTVAAGSVSGFGGGTIYYPTSTAEGTFGAVAISPGFTARQTSVAWLGPRLASQGFVVITIDTRSVYDQPASRGTQLLAALDYLTNTSTVRTRIDRNRLAVMGHSMGGGGSLSAASTRPALQAAIPLTGWHTQKSWSSVRVPTLVIGAENDTVAPVSSHSEPFYTSLPATLDKAYLELNAASHSAPTSSNVTVAKYSISWLKRFVDDDTRYEQFLCPAPRGSAIEEYRDTCPHS [TEP042]", "< 25 µg"],
  ["QNPYERGPAPSTASLEASRGPFATSSFTVSRPSGYGAGTVYYPTNAGGTVGAIAIVPGYTARQSSINWWGPRLASHGFVVITIDTNSTSDQPASRSRQQLAALDQVATLNSTSSSPIYNKVDTSRMGVMGWSMGGGGSLISAQNRSSLKAAAPQAPWNSSTNFSSVTVPTLIFACESDAIARVGSHASPMYNSMTRNPKQFMEIEGGSHSCANSGNSNQALIGKKGVAWMKRFMDNDTRYTSFACSNPNSTRVSDFRVARCS [ESM114]", "< 25 µg"],
  ["VQSESPGKKYTSGPYGYTTTSLTGYSAGATIYIPRTGTPPYSGIVFMQPYTGTQAMDAAWGPFFASHGIIYVNCDSMTTLDTVDSRATQQMNAVSILKSSSKVKGKLDTSRVGVMGWSMGGGASWINSSKSGVKTAMTLAGHNLTAVSTASKGYSTRCPTAIFSGSLDTTYLGGLGQSEGVYAAIPRSVSKLHYKVATAGHMVWGGPTTASVNVGAIGLAFQKTYLDGDTRWKAYITRPADAAIWTTNLR [TEP005]", "< 25 µg"]
]}

----------
Assay: PET hydrolysis, aromatic products released after 48 h (umol product/mg enzyme); higher = more PET depolymerization activity
Conditions: substrate: cryPow; 60 °C; pH 6.5
PET hydrolysis values for the sequences below.
reported-property: PET hydrolysis

{"columns": ["ordered-residues", "reported-property", "observed-result"],
 "data": [
  ["AADNPYQRGPDPTPASVSANRGTFATTQVAVAAGNGFGGGVIYYPTDTSQGQFGAIAVVPGYTATWAAEGAWMGHWLASFGFVVIGIDTNNRNDWDTARGTQLLAALDYLTQRSSVRDRVDATRTAVMGHSMGGGGAASASLQRPSLKASIGLAPASFSQNLTTTRVPTMLLSGQNDTTITPASVVNLYNGIPASVEKAYLELSGAGHGFPTSNNSTMMRNVIPWFKVFVDSDTRYTQFLCPLANWSGIRTYQSTCPLVPSTPPTSTTTSTTTSTTTSTTTTTTPQPVGACNATYRTTNSWPGGYQGEVTVTAGESGVNGWTTRWTLGSGQTVTQVWNGTLTVDGSTASVRNAAYNGSLPAGGSAAFGFIGGGTPPTSLTCTSP [ESM023]", "PET hydrolysis", "< 3"],
  ["GRVMAASDSGTAADERVYAEPSVDPASVGSAGRNPYERGPEPTLASVAAEYGPFDTDQLTVPPGHGFNGGYIYYPTDTSQTFGAVAIVPGYTALFADEEAWMGPRLASFGFVVIGIETNSRDDWDIARGEQLLAALDYLVHHSPVRARIDANRLAVVGHSMGGGGALFAATQRPSLKAVVALAPYFPSGSLAAIRVPTMIIGGQDDTVVTPSYLDDLYASRPAHTPGAYLMLADADHLFATRPNTVEMRLLIPWLKIFVDHDTRYTQFLCPVADRSGIARHHVT [TEP126]", "PET hydrolysis", "< 3"],
  ["AGFEKGPDPTTASVTADRGSYDIAQVDVPKGSGTGFADGTIYYPKSTADGTFGAVAVIPGFLEPKSAIDWYGPRLASQGFVVMTLDTTSVFDTPDSRGGQLLAALDYLTSKSTVKDRIDPNRLAVVGHSMGGGGTLSAAANRPNLKAAVALAPWHVSAPLTSVKTPTMIFGSDNDFIAPDGTFAKPFYDGISNAPEKAYVRLKNAGHMAYVFPDKRIAEYTLSWLKRYVDDDTRYTQFLCPGPTNESTIAAYKSTCPM [DP093]", "PET hydrolysis", "< 3"]
]}

----------
Experiment: PET hydrolysis, aromatic products released after 48 h (umol product/mg enzyme); higher = more PET depolymerization activity
Details: substrate: cryPow; 40 °C; pH 7.5
# PET hydrolysis annotations

{"columns": ["ordered-residues", "PET hydrolysis"],
 "data": [
  ["STRNQEPTLQSIEAARGPYEIATQSVPPAVNTGFGGGTIYYPATTGAGKFGAVALSPGYMEKEYSFSWLGTRLASQGFVVFIINTQNSEEFPSARTDELLASLNYLTQTSEVRDRVDPNRLAVMGHSMGGGAALEAAEKNQSLRAVISMTPWNIKTTYSDIKTPTLIIGAQYDNIAPVHDHAQPSYASLPNDLAKSYLELRNGNHFSPNMENTAIARSSTVWLKRFVDGDTRYNKFICPGPTVGDEFNIVQSNCPIL [DP079]", "< 3"],
  ["QTNPFQRGPAPTEATLEATRGPMATSQFTVSRPSGYRAGTVYYPTNAGGTVGGIVVVPGYTAYQSDINWWGPRLASWGFIVMTIDTNSTLDQPASRSRQQLAALDQLATLSRTSSSPIYNKLDTNRMGVMGWSMGGGGSLISTENRPSLKASIPFAPWNSTENFSSVTVPTLIIACQDDSIAPVYSHASPFYNSMTRNPKQFLEVRGEGHYCANSSNSDKDFLGKKGVAWMKRFMDNDTRFTTFACTNQESSLDVSDFRTARCS [DP032]", "< 3"],
  ["AAGYERGPNPTSSALEATRGPFSVASTNVSSLSASGFGGGTIYYPTDTSQGTFGGVVIAPGYTASKSSMAWLAERLASHGFVVFNIDTITRSDQPDSRGRQILAAADHLAEESSSTVRRRLDASRIGVMGHSMGGGGTLAAADSRPSLKAAVPLTPWHLDKSWGNVRVPTMIIGAENDTIAAVGSHSEPFYNSLSAAPEKAYLELNGASHFAPNSDNDTIAKYGISWMKRFVDEDTRYDQFLCPAPGRSTTIEEYRSSCPHS [DP086]", "< 3"]
]}

----------
Listing of entries alongside the reported PET hydrolysis.
Assay: PET hydrolysis, aromatic products released after 48 h (umol product/mg enzyme); higher = more PET depolymerization activity
Settings: substrate: cryPow; 40 °C; pH 5.5

{"columns": ["ordered-residues", "PET hydrolysis"],
 "data": [
  ["ADNPYQRGPEPTTSSVAATRGTFATAEVSVSKGNGFGGGKIYYPTDTSKGTFGAIAVVPGYTATWAAEGAWMGPWLASFGFVVIGIDTNSRTDYDTARGTQLLAALDYLTQKSSVRSRVDVKRLSVMGHSMGGGGAMYAALHRPSLWAAVGNAPFSPSQNLKSDRVPTLLLAGQKDTTVTPSSVVGLYNGIPAATEKGYLELTGAAHNFPTRSNSVMMRKVVPWLKIFVDHDTRYGQFLCPSLKDTTGITSYRSTCPLTTAGQ [ESM078]", "< 3"],
  ["ANPYERGPNPTQALLEARSGPFSVSSERAWRLGSDGFGGGTIYYPRENNTYGAVAISPGYTGTQASVAWLGERIASHGFVVITIDTNTTLDQPDSRADQLEAALDHMVDGASSTVRSRIDRNRLAVMGHSMGGGGTLRLASQRPDLKAAIPLTPWHLNKSWSNVQVPTLIIGADLDTIAPVLTHAEPFYNSIPTSTRKAYLELDGATHFAPNITNSTIGMYSVAWLKRFVDEDTRYTQFLCPGPRTGLFSDVEEYRSTCPF [TEP014]", "< 3"],
  ["DTGSHERGPDPTEQALEARSGPFDTDDERVSSLGASGFGGGTIYYPEDTSEGDFGAVALAPGYTASSTSYSSLAERIASHGFVVLAFDTNTRYDQPNSRGRQMESALEYLTEDSDVTDRIDTDRQAVSGHSMGGGGTLAAADDNPDLQAAVPLTPWHTQKSWSGMQVPTMIIGAENDSIASVRSHSIRFYESLPGSLEKGYAEVDGASHFAPNSNDDTVAKYTITWLKRFVDNDTRYEQFLCPPPDSGGWGDDLSDYRDSCPTG [DP052]", "< 3"]
]}

Where do the numbers come from? From the supplement of paper PMC12455559.
